# Test system: UO-31 renal
# Test description: NCI-60 one-dose screen, 48 h
# Condition context: 10 µM unless noted
About 83,000 compounds went through this panel and 20% of them were active in at least one assay; those are over-represented in the sample as a whole. Activity calls are given as the source filed them. How the source made its calls: active means growth percent below 10; inactive means the rest.
Returns: one label drawn from t (active), f (inactive)

Dear colleague, could you share the recorded outcome for `CNCc1cccnc1` when you have a moment?
f

Also `CCCC[C@H](NC(=O)[C@H]1CCCCN1C)C(=O)N(C)[C@H](C[C@@H](OC(C)=O)c1nc(C(=O)N[C@@H](Cc2ccccc2)C[C@H](C)C(=O)OCC)cs1)C(C)C` , if possible.
f

Also O=C(CC1(O)C(=O)N(Cc2ccccc2)c2ccc(F)cc21)c1ccc(C(=O)NCC2CCC3(CC2)OOC2(CCCCC2)OO3)cc1 (centres undefined) , if possible.
t

Also `CCCC[C@H](NC(=O)[C@H]1CCCN1C)C(=O)N(C)[C@H](C[C@@H](OC(C)=O)c1nc(C(=O)N[C@@H](Cc2ccccc2)C[C@H](C)C(=O)OCC)cs1)C(C)C` , if possible.
f
